system: T47D-KBluc cells; assay: cells; settings: Homo sapiens, 24 h
Lab note: anything with EC10 below 0.5 µM is marked True; values at 0.5 µM or higher are marked False.

compound | classAssignment
CCCOC(=O)c1ccc(O)cc1 | False
O=C1C[C@@H](c2ccc(O)cc2)Oc2cc(O)cc(O)c21 | True

**Q:** Identify whether the compound c1ccc2c(c1)-c1cccc3cccc-2c13 records EC10 below 0.5 µM.
**A:** False

**Q:** Query Brc1ccc(Oc2c(Br)cc(Br)cc2Br)c(Br)c1 next
**A:** False

**Q:** Query O=C1OC[C@H](Cc2cccc(O)c2)[C@H]1Cc1cccc(O)c1 next
**A:** False

**Q:** Query C[C@]12CC[C@@H]3c4ccc(O)cc4CC[C@H]3[C@@H]1CC[C@@H]2O [Estradiol, reference compound] next
**A:** True

**Q:** Query CC1COCc2cc3c(cc21)C(C)(C)C(C)C3(C)C (stereo not drawn) [Galaxolide, Galaxolide (HHCB)] next
**A:** False

**Q:** Query COc1ccc(C(=O)c2ccccc2)c(O)c1 next
**A:** False

**Q:** Query C#C[C@]1(O)CC[C@H]2[C@@H]3CCc4cc(O)ccc4[C@H]3CC[C@@]21C [EE2, Ethinyl estradiol, reference compound] next
**A:** True

**Q:** Query Cc1ccc(/C=C2/C(=O)C3(C)CCC2C3(C)C)cc1 (stereo not drawn) next
**A:** False

**Q:** Query COC(=O)c1ccc(O)cc1 next
**A:** False

**Q:** Query CC(C)(c1ccc(O)cc1)c1ccc(O)cc1 next
**A:** True

**Q:** Query O=c1c(-c2ccc(O)cc2)coc2cc(O)cc(O)c12 next
**A:** True

**Q:** Query O=c1oc2cc(O)ccc2c2oc3cc(O)ccc3c12 next
**A:** True

----------
test system: MCF-7 cells; assay: Estrogenicity assay, mitogenic endpoint (ESCREEN); details: ESCREEN
endpointLabel: Signs of toxicity (in words)

Recorded Signs of toxicity (in words), per entry:
compound | experimentalTarget | valueMeasured
O=[N+]([O-])[O-].O=[N+]([O-])[O-].[Pb+2] [Pb(NO3)2, Lead nitrate] | MCF-7 cells | None
Clc1ccc(-c2ccccc2Cl)cc1 | MCF-7 cells | None
CCOC(=O)c1ccccc1C(=O)OCC [DEP, Di ethyl phthalate] | MCF-7 cells | None
Clc1cc(Cl)c(-c2cc(Cl)c(Cl)cc2Cl)cc1Cl | MCF-7 cells | None
Clc1ccc(-c2cc(Cl)c(Cl)c(Cl)c2)cc1Cl | MCF-7 cells | None

**Q:** Need Signs of toxicity (in words) of Cn1c(N)nc2ncc(-c3ccccc3)cc21 , thanks.
**A:** None

**Q:** Query Cc1cnc2ccc3c(nc(N)n3C)c2n1 next
**A:** None

**Q:** Query COc1ccc(O)c(C(C)(C)C)c1 [BHA, Butylated hydroxyl anisole] next
**A:** None

**Q:** Query Cc1cc(C(C)(C)C)c(O)c(C(C)(C)C)c1 [BHT, Butylated hydroxytoluene] next
**A:** None

----------
test system: MCF-7 cells; assay: Modulation studies (ESCREEN only): effect of potential modulators on the response evoked by a reference mixture of estrogens (REFmix); type: cell-based, human; conditions: ESCREEN response to REFmix (Mixture 3d, ca. 50% effect); screening, one experiment
endpointLabel: Observed modulation

molecule | endpointLabel | valueMeasured
Cc1cc(C(C)(C)C)c(O)c(C(C)(C)C)c1 [BHT, Butylated hydroxytoluene] | Observed modulation | Possible negative
COc1ccc(O)c(C(C)(C)C)c1 [BHA, Butylated hydroxyl anisole] | Observed modulation | Possible negative
O=[N+]([O-])[O-].O=[N+]([O-])[O-].[Pb+2] [Pb(NO3)2, Lead nitrate] | Observed modulation | Possible negative
CCCCOC(=O)c1ccccc1C(=O)OCCCC [DBP, Di butyl phthalate] | Observed modulation | Possible negative
Cn1c(N)nc2ncc(-c3ccccc3)cc21 | Observed modulation | Possible negative

**Q:** Need Observed modulation of CCCCC(CC)COC(=O)c1ccccc1C(=O)OCC(CC)CCCC (stereo not shown) [DEHP, Di ethyl hexyl phthalate] , thanks.
**A:** None

**Q:** Query [Cl][Cd][Cl] [CdCl2, Cadmium chloride] next
**A:** Clear negative

**Q:** Query Clc1cc(Cl)c(-c2cc(Cl)c(Cl)c(Cl)c2Cl)cc1Cl next
**A:** None

**Q:** Query Clc1ccc(-c2cc(Cl)c(Cl)c(Cl)c2)cc1Cl next
**A:** Clear negative

**Q:** Query CCCCOC(=O)c1ccccc1C(=O)OCc1ccccc1 [BBP, Butyl benzyl phthalate] next
**A:** None

----------
tested on: MCF-7 cells; test: Estrogenicity assay, mitogenic endpoint (ESCREEN); conditions: ESCREEN; ‘Active’ = positive signal clearly distinguishable from assay variability and noise
endpointLabel: Signs of estrogenicity: Active at concentration

compound | valueMeasured
CCCCC(CC)COC(=O)c1ccccc1C(=O)OCC(CC)CCCC (centres unmarked) [DEHP, Di ethyl hexyl phthalate] | Active at 1 µM or higher
CCCCOC(=O)c1ccccc1C(=O)OCc1ccccc1 [BBP, Butyl benzyl phthalate] | Active at 1 µM or higher

----------
Tested on: MCF-7 cells
Assay: Estrogenicity assay, mitogenic endpoint (ESCREEN)
Conditions: ESCREEN; chemical screened as potential modulator, tested alone
Description: The ESCREEN assay was performed using cloned MCF-7 cells (described in [6], gifted from A. Soto, Boston) and the established ESCREEN method was followed using an adapted 96-well format. Cells were cultured in DMEM (5% FCS). […] After application of test solutions, plates were incubated for 120 hours before fixation with 10% trichloroacetic acid and sulforhodamine B (SRB) staining to measure protein and allow the indirect quantification of cell number. […]
endpointLabel: Signs of estrogenicity (in words)

Recorded Signs of estrogenicity (in words), per entry:
compound | Signs of estrogenicity (in words)
COc1ccc(O)c(C(C)(C)C)c1 [BHA, Butylated hydroxyl anisole] | None
c1ccc2c(c1)cc1ccc3cccc4ccc2c1c34 [Benzo [a] pyrene] | None
[Cl][Hg][Cl] [HgCl2, Mercury chloride] | None
[Cl][Cd][Cl] [CdCl2, Cadmium chloride] | None
O=[N+]([O-])[O-].O=[N+]([O-])[O-].[Pb+2] [Pb(NO3)2, Lead nitrate] | None

**Q:** Need Signs of estrogenicity (in words) of Clc1cc(Cl)c(-c2cc(Cl)c(Cl)c(Cl)c2Cl)cc1Cl , thanks.
**A:** None

**Q:** Query Cc1cnc2ccc3c(nc(N)n3C)c2n1 next
**A:** None

**Q:** Query Clc1cc(Cl)c(-c2cc(Cl)c(Cl)cc2Cl)cc1Cl next
**A:** None

**Q:** Query Cn1c(N)nc2ncc(-c3ccccc3)cc21 next
**A:** None

**Q:** Query Cc1cc(C(C)(C)C)c(O)c(C(C)(C)C)c1 [BHT, Butylated hydroxytoluene] next
**A:** None

**Q:** Query Clc1ccc(-c2ccccc2Cl)cc1 next
**A:** None

----------
tested on: MCF-7 cells; test: Estrogenicity assay, mitogenic endpoint (ESCREEN); details: Homo sapiens, MCF7, 120 h
# reported EC25; entries follow
Express it in nM; write the number only.

Recorded EC25, per entry:
compound | unitInfo | EC25
C#C[C@]1(O)CC[C@H]2[C@@H]3CCc4cc(O)ccc4[C@H]3CC[C@@]21C [EE2, Ethinyl estradiol, reference compound] | nM | 0.00181
CCCCOC(=O)c1ccc(O)cc1 | nM | 1320
C[C@]12CC[C@@H]3c4ccc(O)cc4CC[C@H]3[C@@H]1CC[C@@H]2O [Estradiol, reference compound] | nM | 0.00312
Brc1ccc(Oc2c(Br)cc(Br)cc2Br)c(Br)c1 | nM | 2410

**Q:** API: value(readout= EC25, system= MCF-7 cells, query= CC(C)(c1ccc(O)cc1)c1ccc(O)cc1 )
**A:** 81.8

**Q:** Query COc1ccc(C(=O)c2ccccc2)c(O)c1 next
**A:** 4310

----------
tested on: T47D-KBluc cells; assay: cells; conditions: Homo sapiens, read-out: Concentration Response Function θ^∧ max
endpointLabel: Emax (%)
Express it in %; write the number only.

compound | experimentalTarget | Emax [%]
CC1COCc2cc3c(cc21)C(C)(C)C(C)C3(C)C (stereo not drawn) [Galaxolide, Galaxolide (HHCB)] | T47D-KBluc cells | 91
COC(=O)c1ccc(O)cc1 [Methylparaben] | T47D-KBluc cells | 206
C[C@]12CC[C@@H]3c4ccc(O)cc4CC[C@H]3[C@@H]1CC[C@@H]2O [Estradiol, reference compound] | T47D-KBluc cells | 123
COc1ccc(C(=O)c2ccccc2)c(O)c1 [Benzophenone-3] | T47D-KBluc cells | 177
C#C[C@]1(O)CC[C@H]2[C@@H]3CCc4cc(O)ccc4[C@H]3CC[C@@]21C [EE2, Ethinyl estradiol, reference compound] | T47D-KBluc cells | 105

**Q:** Need Emax of CCCOC(=O)c1ccc(O)cc1 [Propylparaben] , thanks.
**A:** 260

**Q:** Query O=C1C[C@@H](c2ccc(O)cc2)Oc2cc(O)cc(O)c21 [Naringenin] next
**A:** 114

**Q:** Query Cc1ccc(/C=C2/C(=O)C3(C)CCC2C3(C)C)cc1 (stereo not drawn) [4MBC, 4-methylbenzylidene camphor] next
**A:** 82

**Q:** Query O=c1c(-c2ccc(O)cc2)coc2cc(O)cc(O)c12 [Genistein] next
**A:** 148

**Q:** Query CCCCOC(=O)c1ccc(O)cc1 [Butylparaben] next
**A:** 331

**Q:** Query Brc1ccc(Oc2c(Br)cc(Br)cc2Br)c(Br)c1 [BDE100, Brominated diphenyl ether-100] next
**A:** 172
